- System: S. aureus (MRSA SAP0017)
- Format: cell-based, Staphylococcus aureus
- Condition Notes: SPOT synthesized peptide, ~12.5 μM, clinical MRSA strain, crystal violet assay
No end group written: not given here.
Property: % Residual MRSA biofilm growth compared to untreated control (%)
One number for each entry, in %.

What does the data say about its % Residual MRSA biofilm growth compared to untreated control? Entry: RQVRVKRWRARW (RQVRVKRWRARW-NH2) [Mmax-18] 100

====

- System: S. aureus (MRSA SAP0017)
- Assay type: cell-based, Staphylococcus aureus
- Condition Notes: SPOT synthesized control peptides, determined as in Table 5; Table 7
Non-standard residues stand in square brackets, D forms with d. No end group written: not given here. hArg = N=C(N)NCCCC[C@H](N)C(=O)O; Agp = N=C(N)NC[C@H](N)C(=O)O; Dab = NCC[C@H](N)C(=O)O
Please respond with reported % Biofilm Inhibition for every item in the list.
One number for each entry, in %.

What does the data say about its % Biofilm Inhibition? Entry: C42 (AIGAARAWRQWA) [Peptide C42] 102

What do you get for C85 (VRLIVAVR[hArg]WRR) [Peptide C85] ? 99

What do you get for C39 (KIKLIQKQLRIK) [Peptide C39] ? 98

I need % Biofilm Inhibition for every entry listed below, if you could help.
1. C22 (LLIAGKWWKLAI) [Peptide C22]
2. C45 (QWLVKWVIIKVV) [Peptide C45]
3. C15 (KRVQAKAWRLQR) [Peptide C15]
4. C61 (VRLI[Agp]AVRIWRR-NH2; N-terminus assumed; SMILES CC[C@H](C)[C@H](NC(=O)[C@H](CC(C)C)NC(=O)[C@H](CCCNC(=N)N)NC(=O)[C@@H](N)C(C)C)C(=O)N[C@@H](CNC(=N)N)C(=O)N[C@@H](C)C(=O)N[C@H](C(=O)N[C@@H](CCCNC(=N)N)C(=O)N[C@H](C(=O)N[C@@H](Cc1c[nH]c2ccccc12)C(=O)N[C@@H](CCCNC(=N)N)C(=O)N[C@@H](CCCNC(=N)N)C(N)=O)[C@@H](C)CC)C(C)C) [Peptide C61]
5. C104 (VRLIVAVRIW[Dab]R) [Peptide C104]
6. C81 (VR[hArg]IVAVRIWRR) [Peptide C81]
7. C35 (IILKRVQVQKIK) [Peptide C35]

1: 103; 2: 102; 3: 100; 4: 101; 5: 93; 6: 107; 7: 101

====

- Tested on: S. aureus (MRSA SAP0017)
- Format: cell-based, Staphylococcus aureus
- Condition Notes: SPOT synthesized control peptides, determined as in Table 5; Table 7
Non-standard residues stand in square brackets, D forms with d. No end group written: not given here. hArg = N=C(N)NCCCC[C@H](N)C(=O)O; Agb = N=C(N)NCC[C@H](N)C(=O)O; Agp = N=C(N)NC[C@H](N)C(=O)O; Orn = NCCC[C@H](N)C(=O)O; Dab = NCC[C@H](N)C(=O)O; Dap = NC[C@H](N)C(=O)O
Please respond with reported % Biofilm Inhibition for every item in the list.
Answers are plain numbers, in %.

Examples with answers:
What does the data say about its % Biofilm Inhibition? Entry: C83 (VRLI[hArg]AVRIWRR) [Peptide C83] 106

What do you get for C16 (KKIRQWGKAAAW) [Peptide C16] ? 100

What do you get for C77 (VRLIVAVRI[Agb]RR; not fully specified (C-terminus); printed as VRLIVAVRIGbutRR) [Peptide C77] ? 101

What do you get for C64 (VRLIVAV[Agp]IWRR) [Peptide C64] ? 107

What do you get for C56 (IIKWIVVRQIRK) [Peptide C56] ? 102

I need % Biofilm Inhibition for every entry listed below, if you could help.
1. C53 (GKLKIKVKLGIA) [Peptide C53]
2. C27 (KKAIKVVAIGRI) [Peptide C27]
3. C92 (VRLIVA[Dap]RIWRR) [Peptide C92]
4. C99 (VRLIV[Dab]VRIWRR; not fully specified (C-terminus)) [Peptide C99]
5. C108 (VRLI[Orn]AVRIWRR-NH2; N-terminus assumed; SMILES CC[C@H](C)[C@H](NC(=O)[C@H](CC(C)C)NC(=O)[C@H](CCCNC(=N)N)NC(=O)[C@@H](N)C(C)C)C(=O)N[C@@H](CCCN)C(=O)N[C@@H](C)C(=O)N[C@H](C(=O)N[C@@H](CCCNC(=N)N)C(=O)N[C@H](C(=O)N[C@@H](Cc1c[nH]c2ccccc12)C(=O)N[C@@H](CCCNC(=N)N)C(=O)N[C@@H](CCCNC(=N)N)C(N)=O)[C@@H](C)CC)C(C)C) [Peptide C108]
6. C19 (RLIQWGWKIWAV) [Peptide C19]
7. C63 (VRLIVA[Agp]RIWRR-NH2; N-terminus assumed; SMILES CC[C@H](C)[C@H](NC(=O)[C@H](CCCNC(=N)N)NC(=O)[C@H](CNC(=N)N)NC(=O)[C@H](C)NC(=O)[C@@H](NC(=O)[C@@H](NC(=O)[C@H](CC(C)C)NC(=O)[C@H](CCCNC(=N)N)NC(=O)[C@@H](N)C(C)C)[C@@H](C)CC)C(C)C)C(=O)N[C@@H](Cc1c[nH]c2ccccc12)C(=O)N[C@@H](CCCNC(=N)N)C(=O)N[C@@H](CCCNC(=N)N)C(N)=O) [Peptide C63]

[98, 102, 103, 100, 104, 99, 105]

I need % Biofilm Inhibition for every entry listed below, if you could help.
1. C88 (VR[Dap]IVAVRIWRR) [Peptide C88]
2. C87 (V[Dap]LIVAVRIWRR) [Peptide C87]

[104, 73]
